half-life overview
test: Half life in iv dosed rat; type: ADME, organism-based; details: in vivo

smiles_representation | measured
N#C[C@@]1(NC(=O)[C@@H](N)Cc2cccs2)C[C@@H]1c1ccccc1 | 84 min
N#CC1(NC(=O)[C@@H](N)Cc2cccs2)CC1 | 30 min
N#C[C@H](Cc1ccc(-c2ccccc2)s1)NC(=O)[C@@H](N)Cc1cccs1 | < 30 min
N#C[C@H](Cc1ccc2ccccc2c1)NC(=O)[C@@H](N)Cc1cccs1 | < 30 min
N#C[C@H](Cc1nc2ccccc2s1)NC(=O)[C@@H](N)Cc1cccs1 | < 30 min

Query: Determine from records and report half-life for N#C[C@H](Cc1ccccc1)NC(=O)[C@@H](N)Cc1cccs1
Response: < 30 min

Query: Give me measured half-life, please, for this molecule: N#C[C@@H](NC(=O)[C@@H](N)Cc1cccs1)C(c1ccccc1)c1ccccc1
Response: < 30 min

====

target: Dipeptidyl peptidase 1 (Homo sapiens); assay: Inhibition of human recombinant cathepsin C
Sequence (P53634 25-134 limits assumed): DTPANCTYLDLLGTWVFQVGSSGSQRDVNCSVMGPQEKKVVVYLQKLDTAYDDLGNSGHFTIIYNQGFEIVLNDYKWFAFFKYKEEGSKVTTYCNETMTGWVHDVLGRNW
Sequence (P53634 231-394 limits assumed): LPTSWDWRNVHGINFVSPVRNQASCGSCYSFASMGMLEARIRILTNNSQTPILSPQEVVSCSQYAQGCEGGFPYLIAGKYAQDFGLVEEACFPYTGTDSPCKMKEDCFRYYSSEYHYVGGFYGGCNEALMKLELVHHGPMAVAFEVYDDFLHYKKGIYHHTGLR
Sequence (P53634 395-463 limits assumed): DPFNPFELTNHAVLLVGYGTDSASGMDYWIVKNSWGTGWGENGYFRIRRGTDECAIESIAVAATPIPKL
outcome_measure: IC50 (nM)

Consider the following illustrative entries.
compound | IC50 / nM
CC1(C)CC1(C#N)NC(=O)[C@@H](N)Cc1cccs1 (stereo partly specified) | 63
N#C[C@H](Cc1ccc2ccccc2c1)NC(=O)[C@@H](N)Cc1cccs1 | 1
CSCC[C@H](N)C(=O)NCCc1c[nH]c2ccccc12 | 11000
N#CC1(NC(=O)[C@@H](N)Cc2cccs2)CCC1 | 1830

1: CC(C)[C@H](N)C(=O)N[C@H](C#N)Cc1c[nH]c2ccccc12
2: N#C[C@H](Cc1ccccc1)NC(=O)[C@@H]1C[C@H](Cl)CN1
Query: Given the listed records, identify the one among 1 and 2 with higher IC50. Give the label of your selection.
Response: 2

====

target: UniProt:P53634; test: Inhibition of human recombinant cathepsin C
outcome_measure: IC50 (nM)

Consider the worked cases shown below.
molecule | target_system | u | IC50
CSCC[C@H](N)C(=O)N[C@H](C#N)Cc1c[nH]c2ccccc12 | UniProt:P53634 | nM | 200
CCSCC[C@H](N)C(=O)N[C@H](C#N)Cc1c[nH]c2ccccc12 | UniProt:P53634 | nM | 1580
N#CC1(NC(=O)[C@@H](N)Cc2cccs2)CC1c1ccccc1 (mixture of isomers) | UniProt:P53634 | nM | 1230
N#C[C@H](CCc1ccccc1)NC(=O)[C@@H](N)Cc1cccs1 | UniProt:P53634 | nM | 11
N#C[C@H](Cc1ccccc1)NC(=O)[C@@H](N)Cc1cccs1 | UniProt:P53634 | nM | 0.9

I: N#C[C@H](Cc1ccc(-c2ccccc2)cc1)NC(=O)[C@@H]1C[C@H](F)CN1
II: N#C[C@H](CC1CCCCC1)NC(=O)[C@@H](N)Cc1cccs1
Query: Please let me know which one, I or II , has a lower measured IC50 value. # answer = label of selected item
Response: II

P: N#C[C@H](Cc1ccccc1)NC(=O)[C@@H]1CCCN1
Q: N#C[C@H](Cc1ccc(-c2ccccc2)s1)NC(=O)[C@@H](N)Cc1cccs1
Query: Sorting ascending by IC50, which comes first: P or Q ? Please identify the chosen entry by its label.
Response: Q
